# assayed_system: ADAR1 (Homo sapiens)
# Construct: endogenous in cells; host or cells: p110 KO A549 dual cells
# Sequence (P55265 1-1226): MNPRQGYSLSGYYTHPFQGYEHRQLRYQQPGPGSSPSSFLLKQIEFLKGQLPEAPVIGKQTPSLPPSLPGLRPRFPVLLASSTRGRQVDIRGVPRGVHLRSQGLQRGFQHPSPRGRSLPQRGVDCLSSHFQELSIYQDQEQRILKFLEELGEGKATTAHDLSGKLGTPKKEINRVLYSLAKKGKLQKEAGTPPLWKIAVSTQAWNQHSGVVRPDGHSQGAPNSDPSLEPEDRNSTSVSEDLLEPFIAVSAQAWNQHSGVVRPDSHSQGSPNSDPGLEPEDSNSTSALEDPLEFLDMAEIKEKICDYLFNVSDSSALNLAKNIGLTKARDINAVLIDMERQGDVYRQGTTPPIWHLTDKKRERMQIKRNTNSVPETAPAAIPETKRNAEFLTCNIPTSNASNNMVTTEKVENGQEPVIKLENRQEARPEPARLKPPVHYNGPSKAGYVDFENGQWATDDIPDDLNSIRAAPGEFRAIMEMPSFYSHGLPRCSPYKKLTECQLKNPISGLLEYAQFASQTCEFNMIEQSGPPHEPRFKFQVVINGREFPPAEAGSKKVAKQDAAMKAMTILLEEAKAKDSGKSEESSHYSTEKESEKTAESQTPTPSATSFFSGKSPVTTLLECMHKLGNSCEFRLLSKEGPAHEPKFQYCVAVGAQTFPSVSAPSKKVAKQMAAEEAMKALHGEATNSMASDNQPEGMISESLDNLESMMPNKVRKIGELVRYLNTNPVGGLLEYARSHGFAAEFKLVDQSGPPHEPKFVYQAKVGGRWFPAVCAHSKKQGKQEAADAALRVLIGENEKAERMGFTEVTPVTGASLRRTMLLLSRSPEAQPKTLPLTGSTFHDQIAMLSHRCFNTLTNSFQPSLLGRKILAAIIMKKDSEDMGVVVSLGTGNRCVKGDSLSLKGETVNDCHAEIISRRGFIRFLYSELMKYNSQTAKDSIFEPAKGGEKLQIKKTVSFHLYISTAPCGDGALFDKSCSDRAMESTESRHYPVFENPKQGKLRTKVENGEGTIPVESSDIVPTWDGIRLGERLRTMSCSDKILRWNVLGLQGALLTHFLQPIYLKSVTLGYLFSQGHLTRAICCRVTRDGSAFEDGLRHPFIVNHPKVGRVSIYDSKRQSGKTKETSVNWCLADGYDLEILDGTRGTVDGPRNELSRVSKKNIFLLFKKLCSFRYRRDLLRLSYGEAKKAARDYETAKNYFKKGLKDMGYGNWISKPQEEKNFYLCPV
# assay_remarks: ADAR1 Inhibition Assay (IFN fold-induction, Quanti-Luc luminescence, p110 KO A549 dual cells)
# Type: cell-based
# particulars: IFN fold-induction vs DMSO, 24 and 48 h
pEC50: −log10 of the molar value.
measured_endpoint: pEC50

# compound, value
rows = [
    ("CCOC(=O)c1cc(-c2ccccc2)sc1NC(=O)CNC(=O)Cc1ccc(OS(C)(=O)=O)c(NS(C)(=O)=O)c1", "< 4.00"),
    ("CCOC(=O)c1cc(-c2ccccc2)ncc1NC(=O)COC(=O)c1cccc(NS(C)(=O)=O)c1 [Compound 189]", "≥ 4.60"),
]

Inquiry: Given CCOC(=O)c1cc(-c2ccccc2)sc1NC(=O)C1CCCCN1C(=O)Cc1cccc(NS(C)(=O)=O)c1 (stereo not shown) , state its recorded pEC50.
Reply text: < 4.00

Inquiry: How about `CCOC(=O)c1cc(-c2ccccc2)sc1NC(=O)COC(=O)C1(c2cccc(NS(C)(=O)=O)c2)CCCC1` ?
Reply text: < 4.00

Inquiry: How about `CCOC(=O)c1cc(-c2ccccc2)sc1NC(=O)COC(=O)c1cccc(NS(=O)(=O)c2ccn(C)n2)c1` ?
Reply text: ≥ 4.60

Inquiry: How about `CCOC(=O)c1cc(C2CCNCC2)sc1NC(=O)COC(=O)c1cccc(NS(C)(=O)=O)c1` ?
Reply text: < 4.00

Inquiry: How about CCOC(=O)c1cc(-c2ccccc2)sc1NC(=O)C(C)NC(=O)Cc1cccc(NS(C)(=O)=O)c1 (stereo not shown) ?
Reply text: < 4.00

// data source = patent US20260200890A1
